- ASSAY NOTES: E. coli DRC41 culture turbidity changes, primary screen, E. coli filamentation inducer project, strain DRC41, OD650, 48 h (AID 1152);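 note: E. coli MC1000 strain DRC41 lacking acrAB efflux pump and sulA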
- PROTOCOL CONDITIONS: E. coli DRC41 (acrAB sulA), higher = more signal, called active from +8 up or from −8 down
Activity calls are given as the source filed them.
MEASURED PROPERTY: z-score

Example cases with answers are listed next.
MOLECULE	z-score
O=C(O)[C@@H]1C[C@@H]2C(=O)N3CCC[C@H]3C(=O)N2[C@@H]1c1cccc(OCCO)c1	0.807 (inactive)
CC(C)C[C@@H]1NC(=O)[C@H]2C[C@@H](C(=O)NCCCCCN)[C@@H](c3cccc(OCCO)c3)N2C1=O	1.25 (inactive)
C=CC[C@H](OC(=O)Nc1ccc(SC)cc1)c1ccc(OCCO)cc1	-0.393 (inactive)

What value of z-score has been recorded for this entry: C=CCNC(=O)[C@H]1[C@@H]2C(=O)O[C@@H](c3ccccc3)[C@@H](c3ccccc3)N2[C@@H](c2ccc(OCCO)cc2)[C@]12C(=O)N(C(=O)OCCOC)c1ccc(C#Cc3ccc(OC)cc3)cc12
2.2 (inactive)

Also check CCc1cccc(NC(=O)O[C@H]2[C@H](OC(=O)Nc3ccccc3)[C@H](OC(=O)Nc3ccccc3)[C@@H](OC)O[C@@H]2CO)c1
-1.42 (inactive)

Also check O=C1C2C=CC(C(O)c3ccco3)N(Nc3ccccc3)C2C(=O)N1c1ccccc1 (configuration not stated)
-0.292 (inactive)

Also check COc1ccc([Si](C)(C)[C@@H]2[C@@H](CC(=O)N3Cc4ccccc4C[C@H]3CO)O[C@]3(C(=O)N(c4ccccc4)c4ccccc43)[C@H]2C)cc1
0.162 (inactive)
